# Tested on: KM12 colon
# assay_summary: NCI-60 one-dose screen, 48 h
# experimental_conditions: 10 µM unless noted
The panel holds about 83,000 compounds, 20% with a hit somewhere; the sample as a whole holds those more often. Calls of active or inactive are those of the source. Rule for the calls: active = growth percent below 10; inactive = the rest.
Labels: active, inactive

[[record]]
molecule = "CC(=O)c1ccc(NS(=O)(=O)c2ccc([N+](=O)[O-])cc2)cc1"
target_of_assay = "KM12 colon"
label_value = "inactive"

[[record]]
molecule = "Nc1ccc(Oc2c(F)c(F)c(Oc3ccc(N)cc3)c(F)c2F)cc1"
target_of_assay = "KM12 colon"
label_value = "inactive"

[[record]]
molecule = "O=C1OC(Oc2ccccc2)(c2ccccc2)c2ccccc21 (stereo not drawn)"
target_of_assay = "KM12 colon"
label_value = "inactive"

[[record]]
molecule = "CCCCCCCCCCCCCCCCCC1=NC(C)(CO)CO1 (stereo not drawn)"
target_of_assay = "KM12 colon"
label_value = "inactive"

[[record]]
molecule = "COc1cc(/C=N/NC(=O)c2ccc(C(F)(F)F)nc2Nc2cc(Cl)ccc2C)cc(OC)c1OC"
target_of_assay = "KM12 colon"
label_value = "inactive"

[[record]]
molecule = "CC1CN(/N=C/c2ccc([N+](=O)[O-])o2)C(=N)O1 (stereo not drawn)"
target_of_assay = "KM12 colon"
label_value = "inactive"

[[record]]
molecule = "COc1cc(/C=C2\\SC(N3CCCCC3)=NC2=O)ccc1OCCCCCCOc1ccc(/C=C2\\SC(N3CCCCC3)=NC2=O)cc1OC"
target_of_assay = "KM12 colon"
label_value = "active"

[[record]]
molecule = "C[C@H]1O[C@@H](O[C@H]2[C@@H](O)C[C@H](O[C@H]3[C@@H](O)C[C@H](O[C@H]4CC[C@]5(C)C6CC[C@]7(C)[C@@H](C8=CC(=O)OC8)CC[C@]7(O)C6CC[C@@H]5C4)O[C@@H]3C)O[C@@H]2C)C[C@H](O)[C@@H]1O (stereo partly drawn)"
target_of_assay = "KM12 colon"
label_value = "active"


---

# System: SK-MEL-28 melanoma
# assay_summary: NCI-60 one-dose screen, 48 h
# experimental_conditions: 10 µM unless noted
This is part of a sample that, as a whole, favours compounds with a hit. Of some 83,000 tested, about 20% had one in any assay. Active and inactive are the calls of the source. The calls were made as follows: active = growth percent below 10; inactive = the rest.
Outcomes: True (active), False (inactive)

[[record]]
chemical_smiles = "O=C(/C=C(\\Nc1ccccc1)c1ccccc1)c1cn(-c2ccc([N+](=O)[O-])cc2)nn1"
target_of_assay = "SK-MEL-28 melanoma"
label_value = "False"

[[record]]
chemical_smiles = "COc1cnc2c(c1)C(=O)c1c-2n(CCCN2CCNCC2)c(=O)c2cc(F)ccc12"
target_of_assay = "SK-MEL-28 melanoma"
label_value = "True"

[[record]]
chemical_smiles = "COc1ccc(C(=O)COc2ccc(/C=C3\\Oc4ccc5ccccc5c4C3=O)cc2)cc1"
target_of_assay = "SK-MEL-28 melanoma"
label_value = "False"

[[record]]
chemical_smiles = "OCc1n(Cc2ccc3ccccc3c2)cc[n+]1Cc1ccc2ccccc2c1"
target_of_assay = "SK-MEL-28 melanoma"
label_value = "False"

[[record]]
chemical_smiles = "C[C@H]1c2cccc(O)c2C(O)=C2C(=O)[C@]3(O)C(O)=C(C(N)=O)C(=O)[C@@H](N(C)C)[C@@H]3[C@@H](O)[C@@H]21"
target_of_assay = "SK-MEL-28 melanoma"
label_value = "False"

[[record]]
chemical_smiles = "O=C(C(=O)N1CCOCC1)c1cn(CCCn2cc(C(=O)C(=O)N3CCOCC3)c3ccccc32)c2ccccc12"
target_of_assay = "SK-MEL-28 melanoma"
label_value = "False"

[[record]]
chemical_smiles = "O=c1c2c(=NCCCN3CCCC3)cc3c(=O)n(CCCN4CCCC4)c(=O)c4c(NCCCN5CCCC5)cc(c(O)n1CCCN1CCCC1)c2c4-3"
target_of_assay = "SK-MEL-28 melanoma"
label_value = "True"

[[record]]
chemical_smiles = "COc1cc(OC)c2c(c1Cl)O[C@]1(C2=O)C(OCc2ccccc2)=CC(=O)C[C@H]1C"
target_of_assay = "SK-MEL-28 melanoma"
label_value = "False"

[[record]]
chemical_smiles = "Nc1nc2c(nnn2Cc2ccc(Cl)c(Cl)c2)c(=O)[nH]1"
target_of_assay = "SK-MEL-28 melanoma"
label_value = "False"

